Tested on: Chlamydia trachomatis
Experiment: Chlamydia assay: transient treatment of Chlamydia with maleimides, infection of McCoy cells, iodine-stained inclusions counted
Type: cell-based
Details: final conc 0.02 (M), working conc 0.04 (M); field 2
measurement_name: IODINE-STAINED INCLUSIONS/FIELD F2 (inclusions/field)
Write it as a number; the unit inclusions/field goes unstated.

Example entries begin here.
CCN1C(=O)C=CC1=O [Compound 4, Ethyl maleimide]: 11
O=C1C=CC(=O)N1c1ccc(OCCOCCOCCOCCOc2ccc(N3C(=O)C=CC3=O)cc2)cc1 [Compound 2, PEG(5) bis phenyl bis maleimide]: 2
COCCOCCOCCOCCOc1ccc(N2C(=O)C=CC2=O)cc1 [Compound 3, PEG(5) phenyl maleimide]: 24

Q: Requested read-out IODINE-STAINED INCLUSIONS/FIELD F2, target or system Chlamydia trachomatis, entry O=C1C=CC(=O)N1CCN1C(=O)C=CC1=O [Compound 1, ethyl bis-maleimide]
Ans: 0

Data credit: patent US20050148653A1
